Assay: activity coefficient (dimensionless); of the first substance listed, at infinite dilution; xn = mol fraction of the nth substance listed
Details: 308.15 K; 101 kPa; Liquid; Chromatography; x1 = 0
activity coefficient less than 4 is Criterion met; activity coefficient greater than or equal to 4 is Criterion not met.

Below 4 on activity coefficient? Entry C1CCCC1 [cyclopentane] + CC[S+](CC)CC.O=S(=O)([N-]S(=O)(=O)C(F)(F)F)C(F)(F)F Criterion not met

Dear colleague, could you confirm whether activity coefficient of Cc1cccc(C)c1 [1,3-dimethylbenzene] + CC[S+](CC)CC.O=S(=O)([N-]S(=O)(=O)C(F)(F)F)C(F)(F)F falls below 4? Thanks. Criterion met

For C1CCCCCC1 [cycloheptane] + CC[S+](CC)CC.O=S(=O)([N-]S(=O)(=O)C(F)(F)F)C(F)(F)F , is the recorded activity coefficient below the cut-off of 4? Criterion not met

Quick check: does C#CCCCC [1-hexyne] + CC[S+](CC)CC.O=S(=O)([N-]S(=O)(=O)C(F)(F)F)C(F)(F)F have activity coefficient under 4? Criterion met

Lab note: confirm whether the reported activity coefficient for this compound is below 4, equality not counting. compound: C=CCCCCCC [oct-1-ene] + CC[S+](CC)CC.O=S(=O)([N-]S(=O)(=O)C(F)(F)F)C(F)(F)F Criterion not met

Given the entry Cc1ccccc1 [toluene] + CC[S+](CC)CC.O=S(=O)([N-]S(=O)(=O)C(F)(F)F)C(F)(F)F , would its reported activity coefficient be below 4? Criterion met

# check: activity coefficient < 4 for CO [methanol] + CC[S+](CC)CC.O=S(=O)([N-]S(=O)(=O)C(F)(F)F)C(F)(F)F Criterion met

Is activity coefficient of Cc1ccccc1C [1,2-dimethylbenzene] + CC[S+](CC)CC.O=S(=O)([N-]S(=O)(=O)C(F)(F)F)C(F)(F)F strictly below 4? Criterion met

Item C#CCCC [1-pentyne] + CC[S+](CC)CC.O=S(=O)([N-]S(=O)(=O)C(F)(F)F)C(F)(F)F : activity coefficient beneath 4, strictly? Criterion met

Would you kindly verify if activity coefficient of CCCCCCCC [octane] + CC[S+](CC)CC.O=S(=O)([N-]S(=O)(=O)C(F)(F)F)C(F)(F)F is strictly less than 4? Criterion not met

Answer whether the compound C1CCCCCCC1 [cyclooctane] + CC[S+](CC)CC.O=S(=O)([N-]S(=O)(=O)C(F)(F)F)C(F)(F)F has activity coefficient strictly less than 4 Criterion not met

API: query returns whether the compound falls strictly under 4 in activity coefficient. Query: Cc1ccc(C)cc1 [1,4-dimethylbenzene] + CC[S+](CC)CC.O=S(=O)([N-]S(=O)(=O)C(F)(F)F)C(F)(F)F Criterion met

----------
Experiment: activity coefficient (dimensionless); of the first substance listed, at infinite dilution; xn = mol fraction of the nth substance listed
Settings: 358.15 K; 101 kPa; Liquid; Chromatography; x1 = 0
Definition: the class of an entry is the range in one: < 3; two: ≥ 3 and < 10; three: ≥ 10 that contains its activity coefficient.

Pick a category. Item: CCCCCCCCCC [decane] + CC[S+](CC)CC.O=S(=O)([N-]S(=O)(=O)C(F)(F)F)C(F)(F)F three

Bin this entry: C#CCCCCCC [1-octyne] + CC[S+](CC)CC.O=S(=O)([N-]S(=O)(=O)C(F)(F)F)C(F)(F)F two

Field: class (activity coefficient) — entry: Cc1ccc(C)cc1 [1,4-dimethylbenzene] + CC[S+](CC)CC.O=S(=O)([N-]S(=O)(=O)C(F)(F)F)C(F)(F)F one

Any idea which band CCCCC [pentane] + CC[S+](CC)CC.O=S(=O)([N-]S(=O)(=O)C(F)(F)F)C(F)(F)F is in? three

Which bin should I file CCO [ethanol] + CC[S+](CC)CC.O=S(=O)([N-]S(=O)(=O)C(F)(F)F)C(F)(F)F under? one

Classify this compound: C1CCCC1 [cyclopentane] + CC[S+](CC)CC.O=S(=O)([N-]S(=O)(=O)C(F)(F)F)C(F)(F)F two

Which activity coefficient band matches CCCCCCCCC [nonane] + CC[S+](CC)CC.O=S(=O)([N-]S(=O)(=O)C(F)(F)F)C(F)(F)F ? three

For C=CCCC [1-pentene] + CC[S+](CC)CC.O=S(=O)([N-]S(=O)(=O)C(F)(F)F)C(F)(F)F , which activity coefficient bin applies? two

Note: place this compound into its band. Item: C1CCCCCC1 [cycloheptane] + CC[S+](CC)CC.O=S(=O)([N-]S(=O)(=O)C(F)(F)F)C(F)(F)F three

// return the class label for C#CCCCCC [1-heptyne] + CC[S+](CC)CC.O=S(=O)([N-]S(=O)(=O)C(F)(F)F)C(F)(F)F two

Record Cc1cccc(C)c1 [1,3-dimethylbenzene] + CC[S+](CC)CC.O=S(=O)([N-]S(=O)(=O)C(F)(F)F)C(F)(F)F — which class? one

Bin? Cc1ccccc1 [toluene] + CC[S+](CC)CC.O=S(=O)([N-]S(=O)(=O)C(F)(F)F)C(F)(F)F one

Would you mind sorting CCCCCCC [heptane] + CC[S+](CC)CC.O=S(=O)([N-]S(=O)(=O)C(F)(F)F)C(F)(F)F into the appropriate category? three

Kindly identify the class of c1ccccc1 [benzene] + CC[S+](CC)CC.O=S(=O)([N-]S(=O)(=O)C(F)(F)F)C(F)(F)F . one

Categorize the following entry: C1CCCCCCC1 [cyclooctane] + CC[S+](CC)CC.O=S(=O)([N-]S(=O)(=O)C(F)(F)F)C(F)(F)F three

Kindly identify the class of C#CCCC [1-pentyne] + CC[S+](CC)CC.O=S(=O)([N-]S(=O)(=O)C(F)(F)F)C(F)(F)F . one

Input CCCCCC [hexane] + CC[S+](CC)CC.O=S(=O)([N-]S(=O)(=O)C(F)(F)F)C(F)(F)F ; output its category three

Classify this compound: C=CCCCCCC [oct-1-ene] + CC[S+](CC)CC.O=S(=O)([N-]S(=O)(=O)C(F)(F)F)C(F)(F)F three

Returns: class label. Input: CCCO [propan-1-ol] + CC[S+](CC)CC.O=S(=O)([N-]S(=O)(=O)C(F)(F)F)C(F)(F)F one

Input O [water] + CC[S+](CC)CC.O=S(=O)([N-]S(=O)(=O)C(F)(F)F)C(F)(F)F ; output its category one

Hello team, could you let me know which band the following compound falls into: CCCCCCCC [octane] + CC[S+](CC)CC.O=S(=O)([N-]S(=O)(=O)C(F)(F)F)C(F)(F)F three

Which activity coefficient category applies to C=CCCCCC [1-heptene] + CC[S+](CC)CC.O=S(=O)([N-]S(=O)(=O)C(F)(F)F)C(F)(F)F here? three

Textbook exercise: identify the category of the compound given here, CCCCO [butan-1-ol] + CC[S+](CC)CC.O=S(=O)([N-]S(=O)(=O)C(F)(F)F)C(F)(F)F , according to its measured value. one
